System: M14 melanoma
Protocol Description: NCI-60 one-dose screen, 48 h
Assay Setup: 10 µM unless noted
Compounds without any hit were thinned out: in the full panel of roughly 83,000, 20% have a hit. The source made the active and inactive calls. How the source made its calls: active means growth percent below 10; inactive means the rest.
The categories you may choose from are label 1 for active, label 0 for inactive

What is the recorded call for this compound in the test? CCCCCOc1ccc(/C=N/Nc2cc(C)nc3ccc(Cl)cc23)cc1
label 1

What is the recorded call for this compound in the test? CC1=CCC(OC(=O)C(C)(O)CCC(O)(C(=O)OC2(C)C=CC(O)(C(C)C)CC2)C(C)C)(C(C)C)CC1 (stereo unspecified)
label 0

What is the recorded call for this compound in the test? C#Cc1cccc(NC(=O)c2cccc(NC(=O)CCl)c2)c1
label 1

What is the recorded call for this compound in the test? Cc1nc(N)nc(N[C@@H](C)c2nc3cccc(NCc4ccc(C(=O)NO)cc4)c3c(=O)n2-c2ccccc2)n1
label 0

What is the recorded call for this compound in the test? COc1ccc2[nH]c(=O)c(CN3CCN(c4nccc(-c5ccc(Cl)cc5)n4)CC3)cc2c1
label 0

What is the recorded call for this compound in the test? COc1ccc(C(=O)Cn2c(C(=O)c3ccccc3)nc3ccccc32)cc1
label 1

What is the recorded call for this compound in the test? CCc1ccc(-c2cn3ccnc3c(-c3ccc4ncn(Cc5ccccc5)c4c3)n2)cc1
label 0

What is the recorded call for this compound in the test? O=C(/C=C(O)/C=C/c1ccc(SC(F)(F)F)cc1)/C=C/c1ccc(SC(F)(F)F)cc1
label 0

What is the recorded call for this compound in the test? COc1ccc(C(=O)c2cc(OC)c(OC)c(OC)c2)cc1O
label 1

What is the recorded call for this compound in the test? CC(=O)CCC(=O)OCc1cc(=O)c(O)co1
label 0

What is the recorded call for this compound in the test? C=C1C(=O)O[C@H]2[C@H]1CC/C(CNC(=O)CCc1ccc(OC)cc1)=C\CC[C@@]1(C)O[C@@H]21
label 0

What is the recorded call for this compound in the test? Cc1cc2nc3c4ccc(Br)cc4n(CCN(C)C)c3nc2cc1C
label 0

What is the recorded call for this compound in the test? CC(C)(C)c1ccc(NS(=O)(=O)c2ccc3nc(NC(=O)c4cnccn4)[nH]c3c2)cc1
label 0

What is the recorded call for this compound in the test? C=C1C(=O)O[C@H]2[C@H]1CC/C(COC(=O)NCCc1c[nH]c3ccc(OC)cc13)=C\CC[C@@]1(C)O[C@@H]21
label 0

What is the recorded call for this compound in the test? COc1cc(/C=C/C(=O)c2nc3cc(F)ccc3nc2C)cc(OC)c1OC
label 0

What is the recorded call for this compound in the test? O=C(Nc1cccc(C2=NCCN2)c1)c1ccc(-c2ccc(C(=O)Nc3cccc(C4=NCCN4)c3)cc2)cc1
label 0

What is the recorded call for this compound in the test? CCc1c2c(nc3ccc(OCc4ccc(B(O)O)cc4)cc13)-c1cc3c(c(=O)n1C2)COC(=O)[C@]3(O)CC
label 1

What is the recorded call for this compound in the test? O=C(/C(=C\c1ccc([N+](=O)[O-])cc1)S(=O)Cc1ccc(F)cc1)c1ccc(F)cc1 (stereo unspecified)
label 0

What is the recorded call for this compound in the test? O=[N+]([O-])c1ccc(N=Nc2cc(S(=O)(=O)O)c3cccc(S(=O)(=O)O)c3c2O)cc1
label 0

What is the recorded call for this compound in the test? CC1(C)c2[nH]c3ccccc3c2C[C@]2(C)[C@H]3C(=O)C=C4[C@@H]5C[C@@](C)(C(N)=O)CC[C@]5(C)CC[C@@]4(C)[C@]3(C)CC[C@@H]12
label 0

What is the recorded call for this compound in the test? CCCC/C=N/NC(=S)NCc1ccccc1
label 0

What is the recorded call for this compound in the test? O=C(CCN1CCCC1)Nc1ccc2c(NCCCCc3ccccc3)c3ccccc3nc2c1
label 1

What is the recorded call for this compound in the test? Nc1c(C(=O)Nc2ccnc3ccccc23)sc2nc3c(cc12)CN(Cc1ccccc1)CC3
label 0

What is the recorded call for this compound in the test? CCCCCCCCCCCCCCCC[N+]1(C)CCN(SN2CC[N+](C)(CCCCCCCCCCCCCCCC)CC2)CC1
label 0

What is the recorded call for this compound in the test? CN(CCN(C)c1ccc(C(=N)N)cc1)c1ccc(C(=N)N)cc1
label 0

What is the recorded call for this compound in the test? COC(=O)/C=C1\S/C(=N\NC(=O)c2cc3ccc2/C=C\c2ccc(cc2)/C=C\3)N(Cc2ccccc2)C1=O
label 0

What is the recorded call for this compound in the test? Cn1ccc2c1CC1CN(Cc3ccco3)C(=O)C1C2C(=O)O (stereo unspecified)
label 0

What is the recorded call for this compound in the test? COc1cc2c(=O)n(CCCN(C)C)c3c4cc5c(cc4ccc3c2cc1OC)OCO5
label 0

What is the recorded call for this compound in the test? COc1ccc(/C=C/c2nc(Nc3ccc(S(=O)(=O)Nc4nc(C)cc(C)n4)cc3)c3ccccc3n2)cc1
label 0

What is the recorded call for this compound in the test? CN[C@@H](C)C(=O)N[C@H]1CCS[C@H]2CC(C)(C)[C@@H](C(=O)N[C@H]3c4ccccc4C[C@H]3OCC#CC#CCO[C@@H]3Cc4ccccc4[C@@H]3NC(=O)[C@H]3N4C(=O)[C@@H](NC(=O)[C@H](C)NC)CCS[C@H]4CC3(C)C)N2C1=O
label 0

What is the recorded call for this compound in the test? CC(C)(C)c1cc(/C=N/NC(=O)c2ccccc2NC(=O)c2cccs2)c(O)c(C(C)(C)C)c1
label 0

What is the recorded call for this compound in the test? O=C(NNc1nc2c(F)cccc2n2cccc12)c1cnccn1
label 1

What is the recorded call for this compound in the test? CCOC(=O)CC1CSC(N/N=C/c2ccc(-n3cccn3)cc2)=N1 (stereo unspecified)
label 0

What is the recorded call for this compound in the test? NS(=O)(=O)c1ccc(CCN2C(=O)c3cc(Cl)c(Cl)cc3C2=O)cc1
label 0

What is the recorded call for this compound in the test? N#CC1C(C#N)C(C(=O)c2ccc(Br)cc2)N2c3ccccc3C=CC12 (stereo unspecified)
label 0

What is the recorded call for this compound in the test? COc1ccc(/C=C/c2nc(Nc3cccc(NC(C)=O)c3)c3ccccc3n2)cc1
label 0

Values were extracted from PubChem BioAssay (NCI).
